Assign % viscosity reduction relative to the “protein alone” control to each entry below.
Tested on: infliximab
Experimental Details: Viscosity reduction of highly concentrated infliximab solution (cone/plate rheometer)
Format: physicochemical
Test Conditions: infliximab 150 mg/ml, 150 mM agent, pH 7.2±0.2 (Table V)
Counter-ions that a name gives are not always drawn.
Kindly answer with a numeric value in %, unit omitted.

Give reported % viscosity reduction relative to the “protein alone” control value for Nc1ccn([C@H]2C[C@H](O)[C@@H](CO)O2)c(=O)n1 [Deoxycyt, 2′-Deoxycytidine]
75

Give reported % viscosity reduction relative to the “protein alone” control value for Cl.N=C(N)NCCC[C@H](N)C(=O)O [Arg, L-arginine hydrochloride salt]
55

Give reported % viscosity reduction relative to the “protein alone” control value for O=c1ccn([C@@H]2O[C@H](CO)[C@@H](O)[C@H]2O)c(=O)[nH]1 [Urid, Uridine]
70

Give reported % viscosity reduction relative to the “protein alone” control value for Nc1ncnc2c1ncn2[C@@H]1O[C@H](COP(=O)(O)OP(=O)(O)OP(=O)(O)O)C(O)C1O (stereo partly drawn) [ATP, Sodium salt of adenosine 5′-triphosphate]
0

Give reported % viscosity reduction relative to the “protein alone” control value for [Cl-].[Na+] [NaCl, Sodium chloride]
6

Give reported % viscosity reduction relative to the “protein alone” control value for Nc1ccn([C@@H]2O[C@H](CO)[C@@H](O)[C@H]2O)c(=O)n1 [Cyt, Cytidine]
76
